Task for the reader: assign each of the following molecules its reported EC50.
measurement_target: ATP-dependent translocase ABCB1 (Homo sapiens, UniProt P08183)
Sequence (P08183 whole entry): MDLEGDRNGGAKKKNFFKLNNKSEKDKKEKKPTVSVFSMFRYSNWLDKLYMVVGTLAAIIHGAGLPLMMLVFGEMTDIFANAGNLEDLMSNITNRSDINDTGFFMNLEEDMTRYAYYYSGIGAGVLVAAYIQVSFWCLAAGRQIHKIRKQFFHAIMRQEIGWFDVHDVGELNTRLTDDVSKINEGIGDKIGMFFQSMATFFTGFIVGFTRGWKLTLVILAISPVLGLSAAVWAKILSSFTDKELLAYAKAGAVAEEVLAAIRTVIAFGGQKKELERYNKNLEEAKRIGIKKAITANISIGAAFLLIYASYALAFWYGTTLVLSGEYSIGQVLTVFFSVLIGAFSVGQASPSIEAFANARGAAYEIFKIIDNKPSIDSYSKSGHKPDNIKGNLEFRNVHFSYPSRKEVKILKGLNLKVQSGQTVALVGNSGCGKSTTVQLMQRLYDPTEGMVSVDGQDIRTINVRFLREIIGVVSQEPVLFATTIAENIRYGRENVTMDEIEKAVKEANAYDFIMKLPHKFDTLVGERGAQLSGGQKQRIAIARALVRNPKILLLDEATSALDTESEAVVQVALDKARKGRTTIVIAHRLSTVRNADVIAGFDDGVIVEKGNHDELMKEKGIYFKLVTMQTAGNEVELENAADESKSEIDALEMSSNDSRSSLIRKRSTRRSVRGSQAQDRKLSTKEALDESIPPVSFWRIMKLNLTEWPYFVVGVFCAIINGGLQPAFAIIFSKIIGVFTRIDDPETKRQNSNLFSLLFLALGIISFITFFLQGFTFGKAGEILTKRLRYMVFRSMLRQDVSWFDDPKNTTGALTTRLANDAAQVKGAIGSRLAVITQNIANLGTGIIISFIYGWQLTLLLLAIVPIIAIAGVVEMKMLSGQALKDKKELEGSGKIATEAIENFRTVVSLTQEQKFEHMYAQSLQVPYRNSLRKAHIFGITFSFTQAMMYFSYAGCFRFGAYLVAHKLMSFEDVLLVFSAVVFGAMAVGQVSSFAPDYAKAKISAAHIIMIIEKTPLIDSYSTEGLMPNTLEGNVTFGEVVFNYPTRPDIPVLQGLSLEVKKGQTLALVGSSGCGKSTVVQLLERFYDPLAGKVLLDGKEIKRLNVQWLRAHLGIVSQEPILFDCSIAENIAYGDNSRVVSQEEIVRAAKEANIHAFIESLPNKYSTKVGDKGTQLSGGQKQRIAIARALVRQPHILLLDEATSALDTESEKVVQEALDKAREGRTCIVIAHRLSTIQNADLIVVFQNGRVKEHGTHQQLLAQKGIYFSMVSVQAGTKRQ
experiment_description: Inhibition of Pgp measured as inhibition of [3H]vinblastine basolateral to apical transport in Caco-2 cells
Give your result in µM as a bare value.

Quote EC50 reported for c1ccc(CCc2ccccc2OCc2cccnc2)cc1 please. 125

Return value of EC50 for input COc1cccc(CCc2ccccc2OCc2cccc(OC)c2)c1 , no commentary. 17.2

For the molecule COc1cccc(CCc2ccccc2OCc2ccccc2)c1 , give its measured EC50 value. 92.8

Tell me EC50 reported for COc1cccc(CCc2ccccc2OCc2ccccn2)c1 27.6

For the molecule c1ccc(CCc2ccccc2OCc2ccccn2)cc1 , give its reported EC50. 100
